Listed next: entries and their corresponding Decomposition efficiency of glycitin family in defatted soybean.
- System: Crude diglycosidase
- Assay Overview: Examination of temperature in the conversion into isoflavone aglycons by diglycosidase using soybean materials
- Format: biochemical, Penicillium multicolor IAM7153
- Set-up: concentration or dose not given beside the values
- Test Settings: 65° C., heat treatment of enzyme no, reaction time 6 h
- Method: Into 400 μL of 20 mM acetate buffer of pH 4.0 was suspended 50 mg of each of various soybean materials (roasted soy flour (manufactured by Fuji Shokuryo K.K.), soymilk (manufactured by Gitoh Shokuhin K.K.), defatted soybean (manufactured by Fuji Seiyu K.K.), concentrated soybean protein (manufactured by Fuji Seiyu K.K.)), whereby a substrate solution was prepared. Crude diglycosidase was diluted with 20 mM acetate buffer of pH 4.0 to be the glycosidase activity of 1.88 AU/mL. […]
Quantity Name: Decomposition efficiency of glycitin family in defatted soybean (%)

[
  {
    "Chemical Structure": "COc1cc2c(=O)c(-c3ccc(O)cc3)coc2cc1O",
    "Target Or System": "Crude diglycosidase",
    "Measured Value": 60.0
  },
  {
    "Chemical Structure": "COc1cc2c(=O)c(-c3ccc(O)cc3)coc2cc1O[C@@H]1O[C@H](COC(=O)CC(=O)O)[C@@H](O)[C@H](O)[C@H]1O",
    "Target Or System": "Crude diglycosidase",
    "Measured Value": 40.0
  }
]

====

Each entry below carries its recorded Decomposition efficiency of glycitin family in concentrated soybean protein.
- System: Crude diglycosidase
- Assay Overview: Examination of pH in the conversion into isoflavone aglycons by diglycosidase using soybean materials
- Assay type: biochemical, Penicillium multicolor IAM7153
- Test Settings: pH2.7; heat treatment of enzyme: no; reaction time 0 h
Quantity Name: Decomposition efficiency of glycitin family in concentrated soybean protein (%)

[
  {
    "Chemical Structure": "COc1cc2c(=O)c(-c3ccc(O)cc3)coc2cc1O",
    "Measured Value": 11.3
  },
  {
    "Chemical Structure": "COc1cc2c(=O)c(-c3ccc(O)cc3)coc2cc1O[C@@H]1O[C@H](COC(=O)CC(=O)O)[C@@H](O)[C@H](O)[C@H]1O",
    "Measured Value": 0.4
  },
  {
    "Chemical Structure": "COc1cc2c(=O)c(-c3ccc(O)cc3)coc2cc1O[C@@H]1O[C@H](CO)[C@@H](O)[C@H](O)[C@H]1O",
    "Measured Value": 52.3
  },
  {
    "Chemical Structure": "COc1cc2c(=O)c(-c3ccc(O)cc3)coc2cc1O[C@@H]1O[C@H](COC(C)=O)[C@@H](O)[C@H](O)[C@H]1O",
    "Measured Value": 35.9
  }
]

====

Measured Decomposition efficiency of glycitin family in roasted soy flour, listed per entry for reference.
- Test system: Crude diglycosidase
- Assay Overview: Examination of temperature in the conversion into isoflavone aglycons by diglycosidase using soybean materials
- Assay type: biochemical, Penicillium multicolor IAM7153
- Parameters: concentration or dose not given beside the values
- Test Settings: 80 °C; heat treatment of enzyme: no; 1 h
Quantity Name: Decomposition efficiency of glycitin family in roasted soy flour (%)

[
  {
    "Chemical Structure": "COc1cc2c(=O)c(-c3ccc(O)cc3)coc2cc1O[C@@H]1O[C@H](COC(C)=O)[C@@H](O)[C@H](O)[C@H]1O",
    "Measured Value": 40.1
  },
  {
    "Chemical Structure": "COc1cc2c(=O)c(-c3ccc(O)cc3)coc2cc1O",
    "Measured Value": 40.8
  },
  {
    "Chemical Structure": "COc1cc2c(=O)c(-c3ccc(O)cc3)coc2cc1O[C@@H]1O[C@H](CO)[C@@H](O)[C@H](O)[C@H]1O",
    "Measured Value": 19.2
  }
]

Entry source: patent US7118895B2
